Target: His-tagged recombinant human AXL cytoplasmic domain (Homo sapiens, UniProt P30530)
Construct: His-tagged recombinant human AXL cytoplasmic domain
Sequence (P30530 473-894 limits assumed): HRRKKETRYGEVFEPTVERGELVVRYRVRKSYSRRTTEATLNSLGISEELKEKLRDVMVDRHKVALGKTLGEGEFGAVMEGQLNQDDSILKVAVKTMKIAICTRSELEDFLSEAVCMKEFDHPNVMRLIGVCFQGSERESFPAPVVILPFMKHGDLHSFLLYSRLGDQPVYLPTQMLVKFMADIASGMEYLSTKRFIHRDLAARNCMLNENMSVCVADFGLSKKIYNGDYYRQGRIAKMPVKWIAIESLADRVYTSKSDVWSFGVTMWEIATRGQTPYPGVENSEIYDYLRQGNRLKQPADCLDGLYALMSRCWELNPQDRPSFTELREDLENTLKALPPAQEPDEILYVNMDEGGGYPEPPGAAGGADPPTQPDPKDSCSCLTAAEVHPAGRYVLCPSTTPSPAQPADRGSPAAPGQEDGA
Assay: AXL Enzyme Assay (LanthaScreen Eu Kinase Binding)
Settings: averaged IC50; 60-minute incubation at 22° C.; TR-FRET
Give measured pIC50 for each item. Keep answers brief.
pIC50 (log units): -log10 of the concentration in mol/L.

Measured pIC50 of `COc1cc2nccc(Oc3ccc(NC(=O)c4c[nH]cc(-c5ccc(F)cc5)c4=O)nc3)c2cc1OC` : 8.15

Measured pIC50 of `COc1cc2nccc(Oc3ccc(NC(=O)c4cn(C(C)C)cc(-c5ccc(F)cc5OC)c4=O)nc3)c2cc1OC` : 8.70

Measured pIC50 of `COc1cc2nccc(Oc3ccc(NC(=O)c4cn(CCC(C)C)cc(-c5ccc(Cl)cc5)c4=O)nc3)c2cc1OC` : 8.30

Measured pIC50 of `COc1cc2ncc(C#N)c(Oc3ccc(NC(=O)c4cn(C(C)C)cc(-c5ccc(F)cc5)c4=O)nc3)c2cc1OC` : 7.92

Measured pIC50 of `COc1cc2nccc(Oc3ccc(NC(=O)c4cn(C(C)C)cc(-c5ccc(F)c(F)c5)c4=O)nc3)c2cc1OC` : 8.70

Measured pIC50 of `COc1cc2nccc(Oc3ccc(NC(=O)c4cn(C(C)C)cc(-c5ccc(F)cc5F)c4=O)nc3)c2cc1OC` : 9.00

Measured pIC50 of `COc1cc(-c2cn(C(C)C)cc(C(=O)Nc3ccc(Oc4ccnc5cc(OC)c(OC)cc45)cn3)c2=O)ccc1F` : 8.52

Measured pIC50 of `CCn1cc(C(=O)Nc2ccc(Oc3ccnc4ccc(OC)cc34)cn2)c(=O)c(-c2ccc(F)cc2)c1` : 8.52

Measured pIC50 of `COc1cc2nccc(Oc3ccc(NC(=O)c4cn(CC(C)(C)O)cc(-c5ccc(F)cc5)c4=O)nc3)c2cc1OC` : 8.70
